Entries annotated with measured OD450
Target: Peptide 1: Biotin-…-[Tyr(PC)]-acid
Sequence (peptide, as listed by the source): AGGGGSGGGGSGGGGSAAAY
Assay: scFv ELISA
Record the value in OD450, omitting the unit from your answer.

Observe how each entry below is paired with its result.
PcOxP_DB01_B02 (scFv, V domains shown, scFv in periplasmic extract) VH: EVQLLESGGGLVQPGGSLRLSCAASGGTFSDFYMEWVRQAPGKGLEWVAASRNKANSYTTAYADSVKGRFTISRDNSKNTLYLQMNSLRAEDTAVYYCARDYYGSSYWYFDVWGQGTLVTVSS VL: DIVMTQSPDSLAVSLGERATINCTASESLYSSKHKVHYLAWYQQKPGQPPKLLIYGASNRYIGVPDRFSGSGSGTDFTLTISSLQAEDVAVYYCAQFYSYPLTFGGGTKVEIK ... 0.68
PcOxP_DB03_A09 (scFv, V domains shown, scFv in periplasmic extract) VH: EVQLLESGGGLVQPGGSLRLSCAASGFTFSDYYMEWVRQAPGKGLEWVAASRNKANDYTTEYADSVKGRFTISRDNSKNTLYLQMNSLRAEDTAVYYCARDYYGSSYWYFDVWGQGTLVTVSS VL: DIQMTQSPSSLSASVGDRVTITCTASESLYSSKHKVHYLAWYQQKPGKAPKLLIYGASNRGIGVPSRFSGSGSGTDFTLTISSLQPEDFATYYCAQFYSYPLTFGGGTKVEIK ... 1.02
PcOxP_DB01_C10 (scFv, V domains shown, scFv in periplasmic extract) VH: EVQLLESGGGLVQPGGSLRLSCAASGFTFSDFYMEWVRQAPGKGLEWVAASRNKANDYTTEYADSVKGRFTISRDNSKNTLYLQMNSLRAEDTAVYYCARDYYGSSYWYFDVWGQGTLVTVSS VL: DIVMTQSPDSLAVSLGERATINCTSSQSLLSSSHNKNYLAWYQQKPGQPPKLLIYGASNRYIGVPDRFSGSGSGTDFTLTISSLQAEDVAVYYCAQFYSYPLTFGGGTKVEIK ... 0.13
PcOxP_DB01_C09 (scFv, V domains shown, scFv in periplasmic extract) VH: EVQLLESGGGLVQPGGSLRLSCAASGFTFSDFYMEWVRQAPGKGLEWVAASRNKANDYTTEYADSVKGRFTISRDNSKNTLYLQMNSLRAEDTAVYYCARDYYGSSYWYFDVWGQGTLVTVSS VL: DIVMTQSPDSLAVSLGERATINCTASQSVYSSKNKVHYLAWYQQKPGQPPKLLIYGASNRYIGVPDRFSGSGSGTDFTLTISSLQAEDVAVYYCAQFYSYPLTFGGGTKVEIK ... 0.27
PcOxP_DB02_C04 (scFv, V domains shown, scFv in periplasmic extract) VH: EVQLLESGGGLVQPGGSLRLSCAASGQTFSDFYMEWVRQAPGKGLEWVAASRNKANGYTTEYTDSVKGRFTISRDNSKNTLYLQMNSLRAEDTAVYYCARDYYGSSYWYFDVWGQGTLVTVSS VL: DIVMTQSPDSLAVSLGERATINCTASESLYSSKHKVHYLAWYQQKPGQPPKLLIYGANNRYIGVPDRFSGSGSGTDFTLTISSLQAEDVAVYYCAQFYSYPLTFGGGTKVEIK ... 0.37

Input: Recorded OD450 of PcOxP_DB03_E12 (scFv, V domains shown, scFv in periplasmic extract) VH: EVQLLESGGGLVQPGGSLRLSCAASGETFSDFYMEWVRQAPGKGLEWVAASRNKWNDYTTEYADSVKGRFTISRDNSKNTLYLQMNSLRAEDTAVYYCARDYYGSSYWYFDVWGQGTLVTVSS VL: DIVMTQSPDSLAVSLGERATINCTASESLYSSKHKVNYLAWYQQKPGQPPKLLIYGASNRYIGVPDRFSGSGSGTDFTLTISSLQAEDVAVYYCAQFYSYPLTFGGGTKVEIK , please.
Output: 0.57

Input: Name the recorded OD450 for PcOxP_DB04_F03 (scFv, V domains shown, scFv in periplasmic extract) VH: EVQLLESGGGLVQPGGSLRLSCAASGFTASDFYMEWVRQAPGKGLEWVAASRWKANDYTTEYADSVKGRFTISRDNSKNTLYLQMNSLRAEDTAVYYCARDIYGSSYWYFDVWGQGTLVTVSS VL: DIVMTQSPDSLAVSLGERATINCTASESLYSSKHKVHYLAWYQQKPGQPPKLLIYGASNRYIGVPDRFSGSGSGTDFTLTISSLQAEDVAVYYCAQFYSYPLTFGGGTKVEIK .
Output: 0.58

Input: What value of measured OD450 is listed for PcOxP_DB01_H10 (scFv, V domains shown, scFv in periplasmic extract) VH: EVQLLESGGGLVQPGGSLRLSCAASGFTFSDGYMEWVRQAPGKGLEWVAASRNKNNDYTTEYADSVKGRFTISRDNSKNTLYLQMNSLRAEDTAVYYCARDYYGSSYWYFDVWGQGTLVTVSS VL: DIQMTQSPSSLSASVGDRVTITCTASESLYSSKHKVHYLAWYQQKPGKAPKLLIYGASNRYFGVPSRFSGSGSGTDFTLTISSLQPEDFATYYCAQFYQYPLTFGGGTKVEIK ?
Output: 0.6

Input: Fill in the blank: the reported OD450 of PcOxP_DB03_B08 (scFv, V domains shown, scFv in periplasmic extract) VH: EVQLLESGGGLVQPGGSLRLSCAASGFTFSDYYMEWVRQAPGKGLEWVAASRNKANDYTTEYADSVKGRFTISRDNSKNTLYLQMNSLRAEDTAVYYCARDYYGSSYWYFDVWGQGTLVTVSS VL: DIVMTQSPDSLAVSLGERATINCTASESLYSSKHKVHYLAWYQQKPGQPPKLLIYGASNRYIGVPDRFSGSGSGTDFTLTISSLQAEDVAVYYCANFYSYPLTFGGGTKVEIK is ____.
Output: 2.63

Input: Field request: OD450 | item: PcOxP_DB02_A05 (scFv, V domains shown, scFv in periplasmic extract) VH: EVQLLESGGGLVQPGGSLRLSCAASGFTGSDFYMEWVRQAPGKGLEWVAASRNKWNDYTTEYADSVKGRFTISRDNSKNTLYLQMNSLRAEDTAVYYCARDYYGSSYWYFDVWGQGTLVTVSS VL: DIVMTQSPDSLAVSLGERATINCTASESLYSSKHKVHYLAWYQQKPGQPPKLLIYGAGNRYIGVPDRFSGSGSGTDFTLTISSLQAEDVAVYYCAQFYSYPLTFGGGTKVEIK
Output: 0.99

Input: Any idea what OD450 was measured for PcOxP_DB04_A11 (scFv, V domains shown, scFv in periplasmic extract) VH: EVQLLESGGGLVQPGGSLRLSCAASGFTFSDYYMEWVRQAPGKGLEWVAASRNKANTYTTEYADSVKGRFTISRDNSKNTLYLQMNSLRAEDTAVYYCARDYYGSSYWYFDVWGQGTLVTVSS VL: DIVMTQSPDSLAVSLGERATINCTASESVLSSKHKKNYLAWYQQKPGQPPKLLIYGASTRYIGVPDRFSGSGSGTDFTLTISSLQAEDVAVYYCAQFYSYPLTFGGGTKVEIK ?
Output: 0.64
